Each recorded value in this set is attributed to ChEMBL document CHEMBL4811297.

Exercise: for every item that follows, state its recorded logD.
Experiment: Lipophilicity, log D of compound at pH 7.4 in octanol/phosphate buffer measured by shake flask method
Assay type: physicochemical
Output: the number by itself.

Task: Would you mind telling me what logD value was observed for `COc1cc(-c2cc(C(=O)O)c3ccccc3n2)ccc1OCC(=O)NCc1ccccc1` ?
Result: 0.4

Task: Would you kindly repeat that for `COc1cc(-c2cc(C(=O)O)c3ccccc3n2)ccc1OCC(=O)Nc1cccc(Cl)c1` ?
Result: 2.3

Task: Note, next up: `COc1cc(-c2cc(C(=O)O)c3ccccc3n2)ccc1OCC(=O)NCc1ccco1`
Result: -0.3

Task: Please give the result for `COc1cc(-c2cc(C(=O)O)c3ccccc3n2)ccc1OCC(=O)Nc1cccc(F)c1` too.
Result: 1.6

Task: What about this molecule? `COc1cc(-c2cc(C(=O)O)c3ccccc3n2)ccc1OCC(=O)NCc1cccnc1`
Result: -0.8

Task: Also need `COc1cc(-c2cc(C(=O)O)c3ccccc3n2)ccc1OCC(=O)Nc1ccc(F)cc1` , thanks.
Result: 1.1

Task: // same read-out, input: `COc1cc(-c2cc(C(=O)O)c3ccccc3n2)ccc1OCC(=O)Nc1ccccc1C(F)(F)F`
Result: 1.3

Task: Next record, please: `COc1cc(-c2cc(C(=O)O)c3ccccc3n2)ccc1OCC(=O)Nc1ccc(Cl)cc1`
Result: 1.5

Task: Please do the same for `COc1cc(-c2cc(C(=O)O)c3ccccc3n2)ccc1OCC(=O)Nc1ccccc1F` as well.
Result: 0.9

###

Please consider the recorded pIC50 for Dihydroorotate dehydrogenase (quinone), mitochondrial (Homo sapiens) in what follows.
Quick note: pIC50 means taking -log10 of the concentration in moles per liter.

Task: Quick one: pIC50 of `COc1cc(-c2cc(C(=O)O)c3ccccc3n2)ccc1OCC(=O)NCc1cccs1` ?
Result: 5.51

Task: Next entry: `COc1cc(-c2cc(C(=O)O)c3ccccc3n2)ccc1OCC(=O)Nc1cccc(F)c1`
Result: 5.68

Task: Continue with `COc1cc(-c2cc(C(=O)O)c3ccccc3n2)ccc1OCC(=O)Nc1ccc(C)cc1`
Result: 5.42

Task: And for `COc1cc(-c2cc(C(=O)O)c3ccccc3n2)ccc1OCC(=O)NC1CCCCC1` ?
Result: 5.77

Task: // next record `COc1cc(-c2cc(C(=O)O)c3ccccc3n2)ccc1OCC(=O)Nc1ccccc1`
Result: 5.41

Task: Another: `COc1cc(-c2cc(C(=O)O)c3ccccc3n2)ccc1OCC(=O)Nc1cccc(Cl)c1`
Result: 6.30

Task: Would you kindly repeat that for `COc1cc(-c2cc(C(=O)O)c3ccccc3n2)ccc1OCC(=O)Nc1ccccc1Cl` ?
Result: 5.89

Task: Please answer likewise for `COc1cc(-c2cc(C(=O)O)c3ccccc3n2)ccc1OCC(=O)Nc1ccccc1F`
Result: 6.30

###

Assay: Lipophilicity, log D of compound at pH 7.4 in octanol/phosphate buffer measured by shake flask method
Format: physicochemical
METRIC_NAME: logD
Just the number, please.

Task: Requested field: logD. Item: `COc1cc(-c2cc(C(=O)O)c3ccccc3n2)ccc1OCC(=O)Nc1ccc(C)cc1`
Result: 1.2

Task: And the next one, `COc1cc(-c2cc(C(=O)O)c3ccccc3n2)ccc1OCC(=O)NC1CCCCC1` ?
Result: 0.8

Task: Next record, please: `COc1cc(-c2cc(C(=O)O)c3ccccc3n2)ccc1OCC(=O)Nc1ccc(C(F)(F)F)cc1`
Result: 1.6

Task: Would you kindly repeat that for `COc1cc(-c2cc(C(=O)O)c3ccccc3n2)ccc1OCC(=O)Nc1cccc(C)c1` ?
Result: 1.5

Task: // next record `COc1cc(-c2cc(C(=O)O)c3ccccc3n2)ccc1OCC(=O)Nc1ccccc1`
Result: 0.7

###

Tested on: HaCaT
Experiment: Antiproliferative activity against human HaCaT cells assessed as inhibition of cell proliferation
Format: cell-based
METRIC_NAME: IC50

Task: Quick one: IC50 for `COc1cc(-c2cc(C(=O)O)c3ccccc3n2)ccc1OCC(=O)Nc1cccc(Cl)c1` ?
Result: 192 µM

Task: And what about the compound `COc1cc(-c2cc(C(=O)O)c3ccccc3n2)ccc1OCC(=O)NC12CC3CC(CC(C3)C1)C2` ?
Result: 180 µM

Task: Subsequent entry: `COc1cc(-c2cc(C(=O)O)c3ccccc3n2)ccc1OCC(=O)NCc1ccco1`
Result: > 300 µM

Task: Same lookup for `COc1cc(-c2cc(C(=O)O)c3ccccc3n2)ccc1OCC(=O)NCc1cccs1` , please.
Result: > 300 µM

Task: Record: `COc1cc(-c2cc(C(=O)O)c3ccccc3n2)ccc1OCC(=O)Nc1ccc(Cl)cc1`
Result: > 300 µM

Task: Now the compound `COc1cc(-c2cc(C(=O)O)c3ccccc3n2)ccc1OCC(=O)NC1CCCCC1`
Result: > 300 µM

Task: # iterate: `COc1cc(-c2cc(C(=O)O)c3ccccc3n2)ccc1OCC(=O)Nc1cccc(F)c1`
Result: 148 µM

Task: How about `COc1cc(-c2cc(C(=O)O)c3ccccc3n2)ccc1OCC(=O)Nc1cccc(C(F)(F)F)c1` ?
Result: 160 µM

Task: Now the compound `COc1cc(-c2cc(C(=O)O)c3ccccc3n2)ccc1OCC(=O)Nc1cccc(C)c1`
Result: 225 µM
